tested-target: MHC-II DRB1*15:03 (Homo sapiens, UniProt P01903+P01911, Y59H)
Construct: purchased ProImmune
Sequence (P01903 26-254, other chains not shown): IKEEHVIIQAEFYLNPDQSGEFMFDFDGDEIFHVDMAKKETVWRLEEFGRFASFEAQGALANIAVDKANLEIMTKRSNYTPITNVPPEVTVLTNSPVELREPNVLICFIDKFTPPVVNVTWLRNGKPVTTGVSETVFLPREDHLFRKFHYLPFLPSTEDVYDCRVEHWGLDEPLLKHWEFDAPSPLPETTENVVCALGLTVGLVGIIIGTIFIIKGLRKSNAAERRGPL
method-description: Cell-free REVEAL class II binding assay
assay-setup: signal of test peptide as percentage of allele-specific positive control peptide, fluorescence, conformation-specific monoclonal antibody
endpoint: Binding Score

residue_string="QKFSSLYISQFIIMY [synthetic wild type FVIII 15 mer peptide]" reading=0.0%
residue_string="SQFIIMYSLDGKKWQ [synthetic wild type FVIII 15 mer peptide]" reading=14.6%
residue_string="LQVDFQKTMKVTGVT [synthetic wild type FVIII 15 mer peptide, region of ns-SNP M2238V]" reading=1.5%
residue_string="TLTLFPFSGETVFMS [synthetic wild type FVIII 15 mer peptide]" reading=0.4%
residue_string="RIHPQSWVHQIALRM [synthetic wild type FVIII 15 mer peptide]" reading=1.4%
residue_string="TRYLRIHPQSWVHQI [synthetic wild type FVIII 15 mer peptide]" reading=25.4%
residue_string="NNPKEWLQVDFQKTM [synthetic wild type FVIII 15 mer peptide, region of ns-SNP M2238V]" reading=0.1%
residue_string="PRCLTRYYSSFVNME [synthetic wild type FVIII 15 mer peptide]" reading=72.3%
residue_string="KMVYEDTLTLFPFSG [synthetic wild type FVIII 15 mer peptide]" reading=0.0%
residue_string="YISQFIIMYSLDGKK [synthetic wild type FVIII 15 mer peptide]" reading=1.4%
residue_string="DVRPLYSRRLPKGVK [synthetic wild type FVIII 15 mer peptide, region of ns-SNP R484H]" reading=2.4%
residue_string="DIEKTDPWFAHRTPM [synthetic wild type FVIII 15 mer peptide, region of ns-SNP R776G]" reading=0.1%
residue_string="AWRPQVNNPKEWLQV [synthetic wild type FVIII 15 mer peptide]" reading=0.2%
residue_string="HKMVYEDTLTLFPFS [synthetic wild type FVIII 15 mer peptide]" reading=0.1%
residue_string="SRPYNIYPHGITDVR [synthetic wild type FVIII 15 mer peptide, region of ns-SNP R484H]" reading=0.2%
residue_string="AVGVSYWKASEGAEY [synthetic wild type FVIII 15 mer peptide]" reading=0.1%
